Recorded IC50 for the following molecules
- Tested Target: full-length human RORγt (Homo sapiens (Human), UniProt P51449)
- Sequence (P51449 other isoform, or with tags, fused parts or gaps): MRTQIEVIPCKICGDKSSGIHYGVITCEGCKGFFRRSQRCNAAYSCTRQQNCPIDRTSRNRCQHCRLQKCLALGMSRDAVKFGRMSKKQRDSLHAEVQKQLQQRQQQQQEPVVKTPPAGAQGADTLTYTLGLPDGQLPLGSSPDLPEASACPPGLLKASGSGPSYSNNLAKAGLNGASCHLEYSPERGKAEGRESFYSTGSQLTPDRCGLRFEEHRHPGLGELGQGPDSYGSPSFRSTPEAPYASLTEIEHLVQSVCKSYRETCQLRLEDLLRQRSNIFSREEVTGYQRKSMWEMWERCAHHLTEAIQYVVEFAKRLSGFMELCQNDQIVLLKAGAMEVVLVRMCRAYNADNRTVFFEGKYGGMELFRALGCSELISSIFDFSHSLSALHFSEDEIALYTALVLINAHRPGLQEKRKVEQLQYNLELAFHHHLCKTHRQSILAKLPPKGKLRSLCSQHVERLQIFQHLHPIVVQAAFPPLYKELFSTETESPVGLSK
- Assay Remarks: RORγt (full-length human) reporter assay, Conditions B or C
- Format: cell-based
- Particulars: HEK293T cells; read-out: RORγt (FL) Reporter Assay B or C, IC50
Property Name: IC50 (µM)

> print(dat)
                                   molecule  property.name  censoring.sign  quantitative.result
1  C[C@H]1CCCN1C(=O)c1nc(C(=O)NCC(C)(C)O)sc1-c1ccnc(NC2CCCCC2)c1C#N [Comparator Example 1, reference compound]           IC50               >                    6
2  C[C@H]1CCCN1C(=O)c1nc(C(=O)NCC(C)(C)O)sc1-c1cnc(NC2CCCCC2)c(C#N)c1 [Example 146]           IC50               =                 0.83
3  C[C@H]1CCCN1C(=O)c1nc(C(=O)NCC(C)(C)O)sc1-c1cncc(NC2CCCCC2)c1C#N [Comparator Example 2, reference compound]           IC50               =                    3
